# Target Of Assay: biotinylated labeled human GPC3 protein (produced in-house) (human, UniProt P51654 25-559, limits assumed, biotinylated (Dojindo, Cat. No. LK03); sites not stated)
# Method Description: ELISA, biotinylated human GPC3 protein
Outcome Measure: OD450 at 0.0008 nM

Answered examples (4):
>  <Binder>
hAb003LH2L1 (antibody, human IgG1, V domains shown, Humanized F2.154.1; VH H2 + VL L1; expressed as human IgG1) VH: EVQLVQSGAEVKKPGSSVKVSCKASGYRFTDYEMHWVRQAPGQGLEWMGTIDPETGNTAYTQKFMDRVTITADKSTSTAYMELSSLRSEDTAVYYCTRGYSFTYWGQGTLVTVSS VL: DIVMTQTPLSLPVTPGEPASISCRSSQNIVHSNGNTYLQWYLQKPGQSPQLLIFKVSNRFSGVPDRFSGSGSGTDFTLKISRVEAEDVGVYYCFQGSHVPFTFGQGTKLEIK

>  <Meas Value>
0.151 OD450

$$$$
>  <Binder>
hAb001H2L1a (antibody, human IgG1, V domains shown, Humanized F2.169.2; VH H2 + VL L1a; expressed as human IgG1) VH: EVQLVESGGGLVQPGGSLRLSCAASGFSFNTNAMNWVRQAPGKGLEWVGRIRSKSNNYATYYADSVKDRFTISRDDSKSSLYLQMNSLKTEDTAVYYCVRDGYYVLFAYWGQGTLVTVSS VL: DIVMTQTPLSLPVTPGEPASISCRFSQSIVNSDGNTYLEWFLQKPGQSPQLLIYKVSNRFSGVPDRFSGSGSGTDFTLKISRVEAEDVGVYYCFQGSHVPFTFGQGTKLEIK

>  <Meas Value>
0.096 OD450

$$$$
>  <Binder>
hAb005LH3L1 (antibody, human IgG1, V domains shown, Humanized F3.54.12; VH H3 + VL L1; expressed as human IgG1) VH: EVQLVQSGAEVKKPGASVKVSCKASGYTFTDYEMHWVRQAPGQGLEWIGAIDPETGNTAYIQKFKGRATLTTDKSTSTAYMELRSLRSDDTAVYYCTRFYSYSHWGQGTTVTVSS VL: DIVMTQTPLSLPVTPGEPASISCRSSQSLVHSNGNTYLHWYLQKPGQSPQLLIYKVSNRFSGVPDRFSGSGSGTDFTLKISRVEAEDVGVYYCSQNTHVPPTFGGGTKVEIK

>  <Meas Value>
0.079 OD450

$$$$
>  <Binder>
hAb006LH3L1 (antibody, human IgG1, V domains shown, Humanized F3.38.7; VH H3 + VL L1; expressed as human IgG1) VH: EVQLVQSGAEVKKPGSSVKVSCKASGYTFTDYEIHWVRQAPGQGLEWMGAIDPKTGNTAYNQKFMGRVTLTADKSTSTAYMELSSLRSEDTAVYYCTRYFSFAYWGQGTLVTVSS VL: DIVMTQTPLSLPVTPGEPASISCRSSQTFVHSNGNTYLQWYLQKPGQSPQLLIYKVSNRFSGVPDRFSGSGSGTDFTLKISRVEAEDVGVYYCFQGSHVPYTFGQGTKLEIK

>  <Meas Value>
0.154 OD450

$$$$

Proceed to the following item.
Look at this binder and give its reported OD450 at 0.0008 nM. hAb007LH1L1 (antibody, human IgG1, V domains shown, Humanized F3.81.19; VH H1 + VL L1; expressed as human IgG1) VH: EVQLVQSGAEVKKPGSSVKVSCKASGYTFSDYEMHWVRQAPGQGLEWMGTIDPETGNTAYNQKFKGRVTITADKSTSTAYMELSSLRSEDTAVYYCTRPYSLTYWGQGTLVTVSS VL: DIVMTQTPLSLPVTPGEPASISCRSSQSFVHSNGDTYLQWYLQKPGQSPQLLIYKVSNRFSGVPDRFSGSGSGTDFTLKISRVEAEDVGVYYCFQGSHVPYTFGQGTKLEIK
0.109 OD450
